- Method Description: Volume of distribution at steady state in Sprague-Dawley rat at 1 mg/kg, iv
- Assay type: ADME, organism-based
- Run Conditions: in vivo, read-out: Vdss
Value Kind: Vd (L/kg)

COc1cnc(-n2ccc(N)n2)c2[nH]cc(C(=O)C(=O)N3CCN(C(=O)c4ccccc4)CC3)c12 ... 0.4
COc1cnc(-n2ccc(C)n2)c2[nH]cc(C(=O)C(=O)N3CCN(C(=O)c4ccccc4)[C@H](C)C3)c12 ... 0.47
CCc1ncn(-c2ncc(OC)c3c(C(=O)C(=O)N4CCN(C(=O)c5ccccc5)[C@H](C)C4)c[nH]c23)n1 ... 0.2
COc1cnc(-c2cncc(=O)[nH]2)c2[nH]cc(C(=O)C(=O)N3CCN(C(=O)c4ccccc4)CC3)c12 ... 0.18
COc1cnc(-n2ccnn2)c2[nH]cc(C(=O)C(=O)N3CCN(C(=O)c4ccccc4)CC3)c12 ... 0.23
COc1cnc(-n2cc(C)nn2)c2[nH]cc(C(=O)C(=O)N3CCN(C(=O)c4ccccc4)[C@H](C)C3)c12 ... 0.29

A = COc1cnc(-n2ccc(CO)n2)c2[nH]cc(C(=O)C(=O)N3CCN(C(=O)c4ccccc4)[C@H](C)C3)c12
B = COc1cnc(-n2ccnn2)c2[nH]cc(C(=O)C(=O)N3CCN(C(=O)c4ccccc4)[C@H](C)C3)c12
Return label of the item with the larger Vd. Candidates: A , B . Let me know the label of the one you choose. A
(A: 1.1 L/kg, B: 0.49 L/kg)

---

- Method Description: Clearance in Sprague-Dawley rat at 1 mg/kg, iv
- Type: ADME, organism-based
- Run Conditions: in vivo
Value Kind: clearance (mL/min/kg)

Here are 2 compounds together with their reported answers.
CCc1ncn(-c2ncc(OC)c3c(C(=O)C(=O)N4CCN(C(=O)c5ccccc5)CC4)c[nH]c23)n1 ... 0.7
COc1cnc(-c2cnccn2)c2[nH]cc(C(=O)C(=O)N3CCN(C(=O)c4ccccn4)[C@H](C)C3)c12 ... 8.8

a = COc1cnc(-n2ccnn2)c2[nH]cc(C(=O)C(=O)N3CCN(C(=O)c4ccccc4)[C@H](C)C3)c12
b = COc1cnc(-n2cc(C)nn2)c2[nH]cc(C(=O)C(=O)N3CCN(C(=O)c4ccccc4)[C@H](C)C3)c12
Could you tell me which of these two has the smaller clearance figure? First: a Second: b Let me know the label of the one you choose. b

---

- Method Description: Half life in human liver microsomes
- Format: ADME, microsome
Value Kind: half-life (min)

Here are 3 compounds together with their reported answers.
CCc1ncc(-c2ncc(OC)c3c(C(=O)C(=O)N4CCN(C(=O)c5ccccc5)CC4)c[nH]c23)s1 ... 7
COc1cnc(-c2cccc(C)n2)c2[nH]cc(C(=O)C(=O)N3CCN(C(=O)c4ccccc4)CC3)c12 ... 12
COc1cnc(-c2cnccn2)c2[nH]cc(C(=O)C(=O)N3CCN(C(=O)c4ccccc4)CC3)c12 ... 19

1 = COc1cnc(-c2cc[nH]n2)c2[nH]cc(C(=O)C(=O)N3CCN(C(=O)c4ccccc4)CC3)c12
2 = COc1cnc(-c2cncc(N)n2)c2[nH]cc(C(=O)C(=O)N3CCN(C(=O)c4ccccc4)CC3)c12
Could you tell me which of these two has the smaller half-life figure? First: 1 Second: 2 Let me know the label of the one you choose. 2

1 = COc1cnc(-c2ccsc2)c2[nH]cc(C(=O)C(=O)N3CCN(C(=O)c4ccccc4)CC3)c12
2 = COCc1ncn(-c2ncc(OC)c3c(C(=O)C(=O)N4CCN(C(=O)c5ccccc5)[C@H](C)C4)c[nH]c23)n1
Could you tell me which of these two has the smaller half-life figure? First: 1 Second: 2 Let me know the label of the one you choose. 1
(1: 13 min, 2: 100 min)

---

- Method Description: Permeability in human Caco2 cells
- Type: ADME, cell-based
- Run Conditions: Caco-2, read-out: permeability
Value Kind: Papp (×10⁻⁶ cm/s)

Here are 2 compounds together with their reported answers.
COc1cnc(-c2cncs2)c2[nH]cc(C(=O)C(=O)N3CCN(C(=O)c4ccccc4)CC3)c12 ... 1.5
CCc1ncn(-c2ncc(OC)c3c(C(=O)C(=O)N4CCN(C(=O)c5ccccc5)CC4)c[nH]c23)n1 ... 26.1

I = COc1cnc(-n2ncnc2C)c2[nH]cc(C(=O)C(=O)N3CCN(C(=O)c4ccccc4)CC3)c12
II = COc1cnc(-c2cnccn2)c2[nH]cc(C(=O)C(=O)N3CCN(C(=O)c4ccccc4)CC3)c12
III = COc1cnc(-c2ccncn2)c2[nH]cc(C(=O)C(=O)N3CCN(C(=O)c4ccccc4)CC3)c12
IV = COc1cnc(-n2cnc(N3CCOCC3)n2)c2[nH]cc(C(=O)C(=O)N3CCN(C(=O)c4ccccc4)CC3)c12
Parameters: sort_field (Papp), sort_dir (desc). Sort the labels as requested; that list is your answer. III, II, I, IV
(III: 37.8 ×10⁻⁶ cm/s, II: 17 ×10⁻⁶ cm/s, I: 9.6 ×10⁻⁶ cm/s, IV: 5.8 ×10⁻⁶ cm/s)

I = COc1cnc(-c2ccco2)c2[nH]cc(C(=O)C(=O)N3CCN(C(=O)c4ccccc4)CC3)c12
II = COc1cnc(-c2cscn2)c2[nH]cc(C(=O)C(=O)N3CCN(C(=O)c4ccccc4)CC3)c12
Return label of the item with the larger Papp. Candidates: I , II . Let me know the label of the one you choose. II
(II: 21.7 ×10⁻⁶ cm/s, I: 8.6 ×10⁻⁶ cm/s)

---

- Method Description: Permeability in human Caco2 cells
- Type: ADME, cell-based
- Run Conditions: Caco-2, read-out: permeability
Value Kind: Papp (×10⁻⁶ cm/s)

COc1cnc(-c2cnccn2)c2[nH]cc(C(=O)C(=O)N3CCN(C(=O)c4ccccn4)[C@H](C)C3)c12 ... 12.5
COc1cnc(-n2ccnn2)c2[nH]cc(C(=O)C(=O)N3CCN(C(=O)c4ccccc4)[C@H](C)C3)c12 ... 14.3
COc1cnc(-n2ccc(C)n2)c2[nH]cc(C(=O)C(=O)N3CCN(C(=O)c4ccccc4)[C@H](C)C3)c12 ... 20
COc1cnc(-n2cnc(C)n2)c2[nH]cc(C(=O)C(=O)N3CCN(C(=O)c4ccccc4)CC3)c12 ... 18.2
COc1cnc(-c2ncccn2)c2[nH]cc(C(=O)C(=O)N3CCN(C(=O)c4ccccc4)CC3)c12 ... 10.6
COc1cnc(-n2cncn2)c2[nH]cc(C(=O)C(=O)N3CCN(C(=O)c4ccccc4)CC3)c12 ... 14.6
COc1cnc(-c2cccnn2)c2[nH]cc(C(=O)C(=O)N3CCN(C(=O)c4ccccc4)CC3)c12 ... 2.4
CCc1ncc(-c2ncc(OC)c3c(C(=O)C(=O)N4CCN(C(=O)c5ccccc5)CC4)c[nH]c23)s1 ... 14.1

A = CCc1ncn(-c2ncc(OC)c3c(C(=O)C(=O)N4CCN(C(=O)c5ccccc5)[C@H](C)C4)c[nH]c23)n1
B = COc1cnc(-n2cncn2)c2[nH]cc(C(=O)C(=O)N3CCN(C(=O)c4ccccc4)[C@H](C)C3)c12
Could you tell me which of these two has the smaller Papp figure? First: A Second: B Let me know the label of the one you choose. B
(B: 21.9 ×10⁻⁶ cm/s, A: 31.5 ×10⁻⁶ cm/s)

I = COc1cnc(-n2cc(C)nn2)c2[nH]cc(C(=O)C(=O)N3CCN(C(=O)c4ccccc4)[C@H](C)C3)c12
II = COc1cnc(-n2cnc(C)n2)c2[nH]cc(C(=O)C(=O)N3CCN(C(=O)c4ccccc4)[C@H](C)C3)c12
Return label of the item with the larger Papp. Candidates: I , II . Let me know the label of the one you choose. I

---

- Method Description: Half life in Sprague-Dawley rat at 1 mg/kg, iv
- Assay type: ADME, organism-based
- Run Conditions: in vivo
Value Kind: half-life (h)

Here are 2 compounds together with their reported answers.
COc1cnc(-n2cnc(N3CCOCC3)n2)c2[nH]cc(C(=O)C(=O)N3CCN(C(=O)c4ccccc4)CC3)c12 ... 1.5
COc1cnc(-n2cc(C)nn2)c2[nH]cc(C(=O)C(=O)N3CCN(C(=O)c4ccccc4)[C@H](C)C3)c12 ... 1.4

A = COc1cnc(-n2cccn2)c2[nH]cc(C(=O)C(=O)N3CCN(C(=O)c4ccccc4)CC3)c12
B = COc1cnc(-n2ccc(C)n2)c2[nH]cc(C(=O)C(=O)N3CCN(C(=O)c4ccccc4)CC3)c12
Return label of the item with the larger half-life. Candidates: A , B . Let me know the label of the one you choose. A
(A: 1.8 h, B: 0.9 h)

---

- Assayed System: Cytochrome P450 3A4 (Homo sapiens)
- Sequence (P08684 whole entry): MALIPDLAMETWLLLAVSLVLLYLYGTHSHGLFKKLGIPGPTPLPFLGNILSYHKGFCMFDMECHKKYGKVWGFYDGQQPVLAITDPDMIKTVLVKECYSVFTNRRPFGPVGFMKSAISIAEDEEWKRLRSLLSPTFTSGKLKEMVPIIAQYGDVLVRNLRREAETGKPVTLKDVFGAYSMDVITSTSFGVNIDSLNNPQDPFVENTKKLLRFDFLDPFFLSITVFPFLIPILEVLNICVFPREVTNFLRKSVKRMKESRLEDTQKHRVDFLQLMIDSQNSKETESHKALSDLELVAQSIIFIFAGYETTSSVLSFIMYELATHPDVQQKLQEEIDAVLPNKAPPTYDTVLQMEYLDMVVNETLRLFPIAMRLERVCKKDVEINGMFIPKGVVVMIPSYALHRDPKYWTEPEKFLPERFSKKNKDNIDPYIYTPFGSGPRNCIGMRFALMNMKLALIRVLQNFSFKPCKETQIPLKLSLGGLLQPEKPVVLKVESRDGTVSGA
Value Kind: IC50 (µM)
# value in µM; strip the unit string

Which IC50 is reported with Cytochrome P450 3A4 (Homo sapiens) for this entry: COc1cnc(-n2cncn2)c2[nH]cc(C(=O)C(=O)N3CCN(C(=O)c4ccccc4)CC3)c12 ? 1
